Source listed as patent US8415342B2.

test system: Staphylococcus aureus; test: MIC, CLSI broth microdilution, clinical isolates; format: cell-based; details: Staphylococcus aureus (all phenotypes, N = 30)
# % S >= 50% gives true (1), anything below gives false (0)

QUERY: Given the entry Cc1onc(-c2ccccc2)c1C(=O)N[C@@H]1C(=O)N2[C@@H]1SC(C)(C)[C@@H]2C(=O)O [Oxacillin] , answer whether its % S meets or surpasses 50%.
RESULT: true (1)

QUERY: Here is the next compound: CC[C@H]1OC(=O)[C@H](C)[C@@H](O[C@H]2C[C@@](C)(OC)[C@@H](O)[C@H](C)O2)[C@H](C)[C@@H](O[C@@H]2O[C@H](C)C[C@H](N(C)C)[C@H]2O)[C@](C)(O)C[C@@H](C)CN(C)[C@H](C)[C@@H](O)[C@]1(C)O [Azithromycin]
RESULT: true (1)

QUERY: Here is the next compound: COc1c(N2CCNC(C)C2)c(F)cc2c(=O)c(C(=O)O)cn(C3CC3)c12 (centres unmarked) [Gatifloxacin]
RESULT: false (0)

QUERY: Here is the next compound: NC[C@H]1O[C@H](O[C@H]2[C@H](O)[C@@H](O[C@H]3O[C@H](CO)[C@@H](O)[C@H](N)[C@H]3O)[C@H](N)C[C@@H]2N)[C@H](N)C[C@@H]1O [Tobramycin]
RESULT: true (1)

====

assay: Nonclinical ocular and systemic pharmacokinetics after topical ocular administration; type: in vivo; conditions: ocular tissues, topical or ocular; nonclinical, topical ocular 0.6% suspension; read-out: apparent half-life of elimination from ocular tissues
REPORTED_ENDPOINT: half-life

QUERY: I'd like to know its half-life. The molecule in question is `N[C@@H]1CCCCN(c2c(F)cc3c(=O)c(C(=O)O)cn(C4CC4)c3c2Cl)C1`
RESULT: > 5 h

====

test system: Staphylococcus hominis; assay: MIC, CLSI broth microdilution, clinical isolates; assay type: cell-based; conditions: Staphylococcus hominis (N = 50)
List of MIC50 values.
Report the figure in µg/mL without appending any unit label.

N[C@@H]1CCCCN(c2c(F)cc3c(=O)c(C(=O)O)cn(C4CC4)c3c2Cl)C1	0.25

QUERY: I'd like to know its MIC50. The compound in question is `COc1c(N2C[C@@H]3CCCN[C@@H]3C2)c(F)cc2c(=O)c(C(=O)O)cn(C3CC3)c12`
RESULT: 1

QUERY: Here is the next compound: `C[C@H]1COc2c(N3CCN(C)CC3)c(F)cc3c(=O)c(C(=O)O)cn1c23`
RESULT: 8

====

List of % S values.
test system: Staphylococcus aureus; assay: MIC, CLSI broth microdilution, clinical isolates; type: cell-based; details: Staphylococcus aureus (CS, N = 14)
Report the figure in % without appending any unit label.

COc1c(N2CCNC(C)C2)c(F)cc2c(=O)c(C(=O)O)cn(C3CC3)c12 (centres unmarked) [Gatifloxacin]	92.9
NC[C@H]1O[C@H](O[C@H]2[C@H](O)[C@@H](O[C@H]3O[C@H](CO)[C@@H](O)[C@H](N)[C@H]3O)[C@H](N)C[C@@H]2N)[C@H](N)C[C@@H]1O [Tobramycin]	92.9
Cc1onc(-c2ccccc2)c1C(=O)N[C@@H]1C(=O)N2[C@@H]1SC(C)(C)[C@@H]2C(=O)O [Oxacillin]	78.6
CC[C@H]1OC(=O)[C@H](C)[C@@H](O[C@H]2C[C@@](C)(OC)[C@@H](O)[C@H](C)O2)[C@H](C)[C@@H](O[C@@H]2O[C@H](C)C[C@H](N(C)C)[C@H]2O)[C@](C)(O)C[C@@H](C)CN(C)[C@H](C)[C@@H](O)[C@]1(C)O [Azithromycin]	64.3

Kindly consider the entry below.
QUERY: I'd like to know its % S. The compound in question is C[C@H]1COc2c(N3CCN(C)CC3)c(F)cc3c(=O)c(C(=O)O)cn1c23 [Levofloxacin]
RESULT: 92.9

====

tested on: baseline pathogens of bacterial conjunctivitis patients; experiment: MIC of baseline clinical trial isolates, Studies 373, 433, 434 (all species); assay type: cell-based; settings: All organisms, N 1324
List of MIC50 values.
Report the figure in µg/mL without appending any unit label.

Please review the following examples before continuing.
CC1COc2c(N3CCN(C)CC3)c(F)cc3c(=O)c(C(=O)O)cn1c23 (centres unmarked)	0.5
CC[C@H]1OC(=O)[C@H](C)[C@@H](O[C@H]2C[C@@](C)(OC)[C@@H](O)[C@H](C)O2)[C@H](C)[C@@H](O[C@@H]2O[C@H](C)C[C@H](N(C)C)[C@H]2O)[C@](C)(O)C[C@@H](C)CN(C)[C@H](C)[C@@H](O)[C@]1(C)O	2

QUERY: I'd like to know its MIC50. The compound in question is COc1c(N2CCNC(C)C2)c(F)cc2c(=O)c(C(=O)O)cn(C3CC3)c12 (centres unmarked)
RESULT: 0.125

QUERY: Here is the next compound: `N[C@@H]1CCCCN(c2c(F)cc3c(=O)c(C(=O)O)cn(C4CC4)c3c2Cl)C1`
RESULT: 0.06

QUERY: Here is the next compound: `C[C@H]1COc2c(N3CCN(C)CC3)c(F)cc3c(=O)c(C(=O)O)cn1c23`
RESULT: 0.25

====

tested on: Staphylococcus epidermidis; experiment: MIC, CLSI broth microdilution, clinical isolates; type: cell-based; conditions: Staphylococcus epidermidis (CS, N = 9)
REPORTED_ENDPOINT: MIC Range

Please review the following examples before continuing.
COc1c(N2CCNC(C)C2)c(F)cc2c(=O)c(C(=O)O)cn(C3CC3)c12 (centres unmarked)	0.06-0.06 μg/mL
N[C@@H]1CCCCN(c2c(F)cc3c(=O)c(C(=O)O)cn(C4CC4)c3c2Cl)C1	0.015 to 0.03 µg/mL

QUERY: I'd like to know its MIC Range. The compound in question is `C[C@H]1COc2c(N3CCN(C)CC3)c(F)cc3c(=O)c(C(=O)O)cn1c23`
RESULT: 0.12-0.12 μg/mL

====

system: Lancefield group C, F, G streptococci; assay: MIC, CLSI broth microdilution, clinical isolates; type: cell-based; settings: G streptococci (N = 50), read-out: MIC90
REPORTED_ENDPOINT: MIC90

Please review the following examples before continuing.
C[C@H]1COc2c(N3CCN(C)CC3)c(F)cc3c(=O)c(C(=O)O)cn1c23 [Levofloxacin]	0.5 µg/mL
CC[C@H]1OC(=O)[C@H](C)[C@@H](O[C@H]2C[C@@](C)(OC)[C@@H](O)[C@H](C)O2)[C@H](C)[C@@H](O[C@@H]2O[C@H](C)C[C@H](N(C)C)[C@H]2O)[C@](C)(O)C[C@@H](C)CN(C)[C@H](C)[C@@H](O)[C@]1(C)O [Azithromycin]	> 8 µg/mL

QUERY: I'd like to know its MIC90. The compound in question is N[C@@H]1CCCCN(c2c(F)cc3c(=O)c(C(=O)O)cn(C4CC4)c3c2Cl)C1 [Besifloxacin]
RESULT: 0.06 µg/mL

====

tested on: S. mitis group; test: MIC of clinical trial isolates, Studies 373, 433, 434; format: cell-based; conditions: Streptococcus mitis group, N 45
List of MIC90 values.
Please report the result as a number followed by the unit.

N[C@@H]1CCCCN(c2c(F)cc3c(=O)c(C(=O)O)cn(C4CC4)c3c2Cl)C1 [BESI]	0.25 µg/mL
CC1COc2c(N3CCN(C)CC3)c(F)cc3c(=O)c(C(=O)O)cn1c23 (centres unmarked) [OFLOX]	4 µg/mL
COc1c(N2CCNC(C)C2)c(F)cc2c(=O)c(C(=O)O)cn(C3CC3)c12 (centres unmarked) [GATI]	0.5 µg/mL
C[C@H]1COc2c(N3CCN(C)CC3)c(F)cc3c(=O)c(C(=O)O)cn1c23 [LEVO]	2 µg/mL

QUERY: I'd like to know its MIC90. The molecule in question is CC[C@H]1OC(=O)[C@H](C)[C@@H](O[C@H]2C[C@@](C)(OC)[C@@H](O)[C@H](C)O2)[C@H](C)[C@@H](O[C@@H]2O[C@H](C)C[C@H](N(C)C)[C@H]2O)[C@](C)(O)C[C@@H](C)CN(C)[C@H](C)[C@@H](O)[C@]1(C)O [AZITH]
RESULT: 8 µg/mL

====

List of MIC90 values.
system: Anaerobic Bacteria; assay: MIC against anaerobic bacteria (Table 7); format: cell-based; conditions: Bacteroides fragilis, Bacteroides fragilis (N = 20); read-out: MIC90
Report the figure in µg/mL without appending any unit label.

N[C@@H]1CCCCN(c2c(F)cc3c(=O)c(C(=O)O)cn(C4CC4)c3c2Cl)C1	1
COc1c(N2CCNC(C)C2)c(F)cc2c(=O)c(C(=O)O)cn(C3CC3)c12 (stereo not shown)	4

Kindly consider the entry below.
QUERY: I'd like to know its MIC90. The molecule in question is `Cc1ncc([N+](=O)[O-])n1CCO`
RESULT: 2
